Target: Proto-oncogene tyrosine-protein kinase Src (Homo sapiens)
Sequence (P12931 2-536 limits assumed): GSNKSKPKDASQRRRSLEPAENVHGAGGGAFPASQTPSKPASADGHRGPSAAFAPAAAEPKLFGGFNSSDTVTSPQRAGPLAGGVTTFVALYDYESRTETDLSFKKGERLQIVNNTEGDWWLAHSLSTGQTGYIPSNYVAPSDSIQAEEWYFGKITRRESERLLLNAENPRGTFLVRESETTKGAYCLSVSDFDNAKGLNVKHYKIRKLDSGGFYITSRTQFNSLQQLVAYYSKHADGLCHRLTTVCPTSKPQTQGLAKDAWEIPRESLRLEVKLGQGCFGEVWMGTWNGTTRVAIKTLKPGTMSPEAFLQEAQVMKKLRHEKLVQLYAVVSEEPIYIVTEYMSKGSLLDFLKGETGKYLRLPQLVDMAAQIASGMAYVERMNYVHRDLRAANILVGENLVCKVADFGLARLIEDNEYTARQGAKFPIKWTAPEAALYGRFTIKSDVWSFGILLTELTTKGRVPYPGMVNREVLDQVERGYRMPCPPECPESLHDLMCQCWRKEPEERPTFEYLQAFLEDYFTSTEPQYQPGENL
Experiment: Inhibition of Src activity
EXPERIMENTAL READOUT: IC50 (nM)

MOLECULE | UNITS LABEL | MEASURED NUMBER
COc1cc(Nc2c(C#N)cnc3ccc(C#CCCN4CCN(C)CC4)cc23)c(Cl)cc1Cl | nM | 230

1. COc1cc(Nc2c(C#N)cnc3cc(C#CCN4CCN(C)CC4)c(OC)cc23)c(Cl)cc1Cl
2. COc1cc(Nc2c(C#N)cnc3cc(C#CCCN4CCN(C)CC4)ccc23)c(Cl)cc1Cl
Q) Which record shows the lower IC50: the first, 1 , or the second, 2 ? Indicate which entry you chose by stating its label.
A) 1
(1: 11 nM, 2: 28 nM)

a. COc1cc2c(Nc3ccc(Cl)cc3Cl)c(C#N)cnc2cc1C#CCCN1CCN(C)CC1
b. COc1cc(Nc2c(C#N)cnc3cc(C#CCCN(C)C)c(OC)cc23)c(Cl)cc1Cl
Q) I would appreciate it if you could say which entry, a or b , has the lower IC50 value. Indicate your choice by writing its label.
A) b
(b: 4.9 nM, a: 8.7 nM)

====

IC50 tested on Proto-oncogene tyrosine-protein kinase Src (Rattus norvegicus, UniProt Q9WUD9): recorded values
Sequence (Q9WUD9 2-536 limits assumed): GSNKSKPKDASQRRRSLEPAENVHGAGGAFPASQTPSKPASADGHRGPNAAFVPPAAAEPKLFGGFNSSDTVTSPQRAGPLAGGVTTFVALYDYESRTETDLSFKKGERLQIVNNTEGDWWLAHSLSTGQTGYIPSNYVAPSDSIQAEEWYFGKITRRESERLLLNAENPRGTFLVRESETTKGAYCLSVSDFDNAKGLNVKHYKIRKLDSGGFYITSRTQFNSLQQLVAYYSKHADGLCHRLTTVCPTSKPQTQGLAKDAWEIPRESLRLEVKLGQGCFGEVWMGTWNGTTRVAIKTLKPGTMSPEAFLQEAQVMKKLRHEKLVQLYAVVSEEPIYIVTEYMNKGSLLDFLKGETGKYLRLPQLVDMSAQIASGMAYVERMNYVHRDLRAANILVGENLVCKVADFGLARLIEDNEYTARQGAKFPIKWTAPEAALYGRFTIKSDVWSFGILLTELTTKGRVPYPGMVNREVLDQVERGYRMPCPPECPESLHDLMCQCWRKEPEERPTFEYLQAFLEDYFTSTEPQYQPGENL
EXPERIMENTAL READOUT: IC50 (nM)

Below are worked cases with known answers.
MOLECULE | UNITS LABEL | IC50
COc1cc(Nc2c(C#N)cnc3cc(C#CCCN4CCN(C)CC4)ccc23)cc(OC)c1OC | nM | 2100
COc1cc2c(Nc3ccc(Cl)cc3Cl)c(C#N)cnc2cc1C#CCCN1CCN(C)CC1 | nM | 430
COc1cc(Nc2c(C#N)cnc3cc(C#CCN4CCN(C)CC4)c(OC)cc23)c(Cl)cc1Cl | nM | 740

P. COc1cc(Nc2c(C#N)cnc3cc(C#CCCN4CCNCC4)c(OC)cc23)c(Cl)cc1Cl
Q. COc1cc(Nc2c(C#N)cnc3cc(C#CCCN4CCN(C)CC4)c(OC)cc23)c(Cl)cc1Cl
R. COc1cc(Nc2c(C#N)cnc3cc(C#CCCN4CCN(C)CC4)ccc23)c(Cl)cc1Cl
Q) Place the items in sequence of falling IC50. Reply with the item labels sorted in the order that was asked for.
A) R, P, Q
